- targetOrTestSystem: fungal (fACC2) (UniProt Q00955)
- Sequence (Q00955 whole entry): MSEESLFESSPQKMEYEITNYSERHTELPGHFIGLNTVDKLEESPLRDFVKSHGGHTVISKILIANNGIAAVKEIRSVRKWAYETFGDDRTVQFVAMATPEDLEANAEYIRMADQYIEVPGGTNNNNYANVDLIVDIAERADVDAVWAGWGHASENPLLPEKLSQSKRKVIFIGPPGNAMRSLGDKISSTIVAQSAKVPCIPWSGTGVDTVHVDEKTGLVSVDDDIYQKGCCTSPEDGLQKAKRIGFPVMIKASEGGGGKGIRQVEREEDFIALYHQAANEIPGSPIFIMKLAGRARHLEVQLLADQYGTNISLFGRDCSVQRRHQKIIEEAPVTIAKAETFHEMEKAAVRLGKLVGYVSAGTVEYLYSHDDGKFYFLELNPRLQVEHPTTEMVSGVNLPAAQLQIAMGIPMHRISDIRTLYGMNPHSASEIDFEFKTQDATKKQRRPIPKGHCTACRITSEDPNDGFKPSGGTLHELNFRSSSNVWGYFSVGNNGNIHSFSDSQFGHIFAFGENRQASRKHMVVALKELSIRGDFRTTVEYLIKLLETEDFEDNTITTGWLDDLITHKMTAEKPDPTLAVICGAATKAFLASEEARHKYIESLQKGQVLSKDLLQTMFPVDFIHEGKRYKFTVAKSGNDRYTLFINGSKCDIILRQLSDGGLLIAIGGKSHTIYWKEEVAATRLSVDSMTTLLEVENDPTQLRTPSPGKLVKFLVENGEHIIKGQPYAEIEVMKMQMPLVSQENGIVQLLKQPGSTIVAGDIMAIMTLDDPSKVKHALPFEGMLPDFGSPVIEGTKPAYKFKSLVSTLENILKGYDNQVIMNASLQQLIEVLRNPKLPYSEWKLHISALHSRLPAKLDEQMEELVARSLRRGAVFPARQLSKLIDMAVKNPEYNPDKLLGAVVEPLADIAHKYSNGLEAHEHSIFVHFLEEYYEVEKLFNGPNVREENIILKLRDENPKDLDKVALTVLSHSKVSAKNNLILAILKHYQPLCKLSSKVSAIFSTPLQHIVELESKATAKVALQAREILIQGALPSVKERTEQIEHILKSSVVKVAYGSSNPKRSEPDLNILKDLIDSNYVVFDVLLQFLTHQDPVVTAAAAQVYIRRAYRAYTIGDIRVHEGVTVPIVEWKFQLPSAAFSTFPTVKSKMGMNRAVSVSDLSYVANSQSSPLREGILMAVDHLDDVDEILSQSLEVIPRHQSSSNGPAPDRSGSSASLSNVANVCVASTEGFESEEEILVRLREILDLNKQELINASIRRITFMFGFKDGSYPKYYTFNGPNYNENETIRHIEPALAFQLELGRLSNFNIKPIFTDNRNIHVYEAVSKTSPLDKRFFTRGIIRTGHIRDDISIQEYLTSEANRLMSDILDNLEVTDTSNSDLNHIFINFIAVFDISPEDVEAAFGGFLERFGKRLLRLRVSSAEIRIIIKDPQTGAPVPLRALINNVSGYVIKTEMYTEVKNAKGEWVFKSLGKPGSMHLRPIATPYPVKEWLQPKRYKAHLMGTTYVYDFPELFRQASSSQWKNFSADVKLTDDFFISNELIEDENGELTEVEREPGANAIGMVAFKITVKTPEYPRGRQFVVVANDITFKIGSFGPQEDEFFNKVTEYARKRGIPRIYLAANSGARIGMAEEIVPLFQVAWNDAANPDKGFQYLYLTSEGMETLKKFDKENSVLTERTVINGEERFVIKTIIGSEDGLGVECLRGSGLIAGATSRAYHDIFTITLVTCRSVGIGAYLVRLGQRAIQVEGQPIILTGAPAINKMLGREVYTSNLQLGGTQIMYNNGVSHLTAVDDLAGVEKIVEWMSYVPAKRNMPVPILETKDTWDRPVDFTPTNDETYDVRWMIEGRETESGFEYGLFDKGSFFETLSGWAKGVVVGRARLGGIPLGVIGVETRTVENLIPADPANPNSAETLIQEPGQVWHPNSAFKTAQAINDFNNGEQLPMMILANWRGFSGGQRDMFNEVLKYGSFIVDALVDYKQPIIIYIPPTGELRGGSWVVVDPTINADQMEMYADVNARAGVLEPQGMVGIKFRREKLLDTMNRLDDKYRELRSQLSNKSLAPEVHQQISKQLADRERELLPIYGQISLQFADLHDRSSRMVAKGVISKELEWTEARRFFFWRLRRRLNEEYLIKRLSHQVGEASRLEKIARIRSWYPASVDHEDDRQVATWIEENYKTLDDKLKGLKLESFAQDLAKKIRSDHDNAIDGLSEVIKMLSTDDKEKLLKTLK
- measurementConditions: read-out: fACC2 (in vitro ACC2 Inhibition Assay, IC50); Table 2a; ADP-Glo, 5 nM ACC2, 20 μM ATP, 20 μM acetyl-CoA
// reported IC50 for each item listed

chemSmiles: C=CCNC(=O)C(C)(C)n1c(=O)c2c(C)c(-n3nccn3)sc2n(C[C@H](OC(C)C)c2cc(F)ccc2OC)c1=O
targetOrTestSystem: fungal (fACC2) (UniProt Q00955)
IC50: 1 to 5 nM

Input: For COCCCO[C@@H](Cn1c(=O)n(C(C)(C)C(=O)N2CCCC2)c(=O)c2c(C)c(-n3nccn3)sc21)c1cc(F)ccc1OC , what is its reported IC50?
Output: 1 to 5 nM

Input: And then COCCO[C@@H](Cn1c(=O)n([C@H](C)C(=O)N2CCCC2)c(=O)c2c(C)c(-n3nccn3)sc21)c1cc(F)ccc1OC , what is it?
Output: 0.4 to 1 nM

Input: And then CCNC(=O)C(C)(C)n1c(=O)c2c(C)c(-n3nccn3)sc2n(C[C@H](OCCC#N)c2ccccc2OC)c1=O , what is it?
Output: 1 to 5 nM

Input: And then COc1ccc(F)cc1[C@H](Cn1c(=O)n([C@H](C)C(=O)N(C)C(C)C)c(=O)c2c(C)c(-n3nccn3)sc21)OCC(C)(C)O , what is it?
Output: 1 to 5 nM

Input: And then COc1ccc(F)cc1[C@H](Cn1c(=O)n(C(C)(C)C(=O)NC(C)C)c(=O)c2c(C)c(-n3nccn3)sc21)OCCCO , what is it?
Output: 0.4 to 1 nM
